Test: chemical genetic growth profiling, strain panel (AID 1159580);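 also: tested at 20 µM; growth read once vehicle control cultures reached saturation at 30 °C; 1 = growth at the plate median or of vehicle wells; lower values mean less growth of the strain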
Details: S. cerevisiae deletion strains, growth OD, locus YPL106C, strain sse1, hits give low values
Among all 5,500 compounds or so, about 2,000 (36%) were called active. Not shown: some 18% with an inconclusive outcome. Some of the results follow.
Lab note: anything with normalized growth below 1 is marked t; values at 1 or higher are marked f.

| compound | assigned label |
| --- | --- |
| COC1CC(O[C@H]2CC[C@]3(C=O)C4CC[C@]5(C)C(C6=CC(=O)OC6)CC[C@]5(O)C4CC[C@]3(O)C2)OC(C)C1O (some centres not stated) | t |
| CNC[C@H](O)c1cccc(O)c1 | t |
| CC(C)c1cccc(O)c(=O)c1 | t |
| CC(=O)O[C@@H]1c2c(ccc3ccc(=O)oc23)OC(C)(C)[C@@H]1OC(=O)CC(C)C | f |
| NC(=O)c1ccc([N+](=O)[O-])cc1Cl | t |
| O=C(O)CCc1nc(-c2ccccc2)c(-c2ccccc2)o1 | t |
| CC1(C)Oc2ccc3ccc(=O)oc3c2CC1O (configuration not stated) | t |
| Cc1ccc(-c2nc3ccc(C)cn3c2CC(=O)N(C)C)cc1 | f |

====

Assay: chemical genetic growth profiling, strain panel (AID 1159580)
Conditions: S. cerevisiae deletion strains, growth OD, locus YLR262C, strain YPT6
In all, about 5,500 compounds went through this assay and about 2,000 (36%) were called active. Another 18% or so got no clear call; they are omitted. No stated cut-off is given here; in the data, active means normalized growth mostly below about 0.91 (no sharp cut-off); inconclusive means no clear call, values can overlap the other calls; inactive means mostly above about 0.92. This is one part of the list.
Possible outcomes: yes = active, no = inactive

| compound | assigned label |
| --- | --- |
| O=C(Nc1ccc(OC(F)(F)F)cc1)Nc1cccc(C(=O)O)c1 | no |
| CNC(=S)N/N=C\c1cc(Br)cc(Br)c1O | yes |
| COc1cc(NC(=S)N2CCN(c3ccccc3OC)CC2)c(OC)cc1Cl | no |
| CCOC(=O)C1C(=O)C=C(c2cccs2)CC1c1ccc(OC)c(OC)c1Cl (stereo not drawn) | yes |
| O=c1c(O)cc([C@H]2Oc3cc(O)cc(O)c3C[C@H]2O)cc2c([C@H]3Oc4cc(O)cc(O)c4C[C@H]3O)cc(O)c(O)c12 | no |
| CNC[C@H](O)c1cccc(O)c1 | no |
| CC(=O)N1CCCC1C(=O)O (stereo not drawn) | no |
| N#Cc1c(Cl)cccc1N1CCCC1 | yes |
| O=C(O)c1ccccc1O | no |
| CC(=O)O[C@@H]1CC2C(C)(C)CCC[C@]2(C)C2CC[C@]3(C)C(=CC(=O)O[C@H]3c3ccoc3)[C@@]21C (stereo partly drawn) | no |
| O=C1C(c2ccc(Br)cc2)=C(O)c2ccccc21 | no |
| CSc1cc(C(F)(F)F)cc(SC)c1SC | yes |
| O=C(CCCN1CCC2(CC1)C(=O)NCN2c1ccccc1)c1ccc(F)cc1 | no |
| C[C@@H](CO)NC(=O)C1C=C2c3cccc4[nH]cc(c34)C[C@H]2N(C)C1 (stereo partly drawn) | no |
| NC[C@H]1O[C@H](O[C@H]2[C@H](O)[C@@H](O[C@H]3O[C@H](CO)[C@@H](O)[C@H](N)[C@H]3O)[C@H](N)C[C@@H]2N)[C@H](N)[C@@H](O)[C@@H]1O | no |
| OCC(O)Cn1c2ccccc2c2ccccc21 (stereo not drawn) | no |
| CCSc1ncccc1C(=O)N[C@@H](CCSC)C(=O)OC | no |
| CCOC(=O)C1=C(O)C(=O)N(Cc2ccccc2)C1 | no |
| COc1ccc(Br)c(-c2nnc(-c3ccccc3[N+](=O)[O-])o2)c1 | no |
| CCCc1nn(C)c2c(=O)[nH]c(-c3cc(S(=O)(=O)N4CCN(C)CC4)ccc3OCC)nc12 | no |
| COc1ccccc1N1CCN(C(=O)Nc2cc(Cl)cc(Cl)c2)CC1 | no |
| O=C(Nc1ccc(Cl)cc1)N1CCN(c2ncccc2C(F)(F)F)CC1 | no |
| N#CCS(=O)(=O)c1cccs1 | no |

====

Assay: chemical genetic growth profiling, strain panel (AID 1159580)
Details: S. cerevisiae deletion strains, growth OD, locus YNL175C, strain NOP13, hits give low values
Hit rate of the full screen: of about 5,500 compounds, about 2,000 (36%) were called active. Roughly 18% stayed inconclusive and do not appear here. Some of the results follow.
Lab note: anything with normalized growth below 1 is marked criterion met; values at 1 or higher are marked criterion not met.

| molecule | assigned label |
| --- | --- |
| C/C=C/CC(C)C(O)C1C(=O)NC(CC)C(=O)N(C)CC(=O)N(C)C(CC(C)C)C(=O)NC(C(C)C)C(=O)N(C)C(CC(C)C)C(=O)NC(C)C(=O)NC(C)C(=O)N(C)C(CC(C)C)C(=O)N(C)C(CC(C)C)C(=O)N(C)C(C(C)C)C(=O)N1C (stereo not drawn) | criterion met |
| CC(C)c1cccc(C(C)C)c1O | criterion not met |
| CC(=O)N1CCN(c2ccc(OC[C@H]3CO[C@](Cn4ccnc4)(c4ccc(Cl)cc4Cl)O3)cc2)CC1 | criterion met |
| NC(=O)c1ccc(OCC(O)CN2CC=C(c3ccc(F)cc3)CC2)cc1 (stereo not drawn) | criterion not met |
| OC[C@H]1O[C@@H](n2cnc3c(NC4CCCC4)ncnc32)C(O)[C@H]1O (stereo partly drawn) | criterion not met |

====

Documented normalized growth across a set of compounds
Experiment: chemical genetic growth profiling, strain panel (AID 1159580);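 also: tested at 20 µM; growth read once vehicle control cultures reached saturation at 30 °C; 1 = growth at the plate median or of vehicle wells; lower values mean less growth of the strain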
Settings: S. cerevisiae deletion strains, growth OD, locus YNR030W, strain Alg12, hits give low values
The whole screen tested about 5,500 compounds, of which about 2,000 (36%) were called active. Roughly 18% stayed inconclusive and do not appear here. The list shows a part of the results.

| compound | normalized growth |
| --- | --- |
| Cn1c(SCc2ccccc2)nnc1-c1ccc2ncccc2c1 | 1.02 |
| N#Cc1c(Cl)cccc1N1CCCC1 | 0.83 |
| CCOC(=O)/C(C#N)=C/Nc1ccc2c(c1)OCO2 | 0.946 |
| COc1ccccc1N1CCN(C(=O)C(C)Nc2ccccn2)CC1 (centres undefined) | 1 |
| c1ccc(-c2ncc3ccccn23)cc1 | 0.981 |
| CC1CC(=O)Nc2ccccc2N1C(=O)c1ccc([N+](=O)[O-])cc1 (centres undefined) | 1.02 |
| O=C(Nc1ccc(Cl)cc1)N1CCN(c2ncccc2C(F)(F)F)CC1 | 0.956 |
| COc1ccc(Br)c(-c2nnc(-c3ccccc3[N+](=O)[O-])o2)c1 | 1 |
| CCOC(=O)C1C(=O)C=C(c2cccs2)CC1c1ccc(OC)c(OC)c1Cl (centres undefined) | 0.968 |
| O=[N+]([O-])c1cccnc1Oc1ccc(Cl)cc1 | 0.906 |
| CC(C)(C)OC(=O)NCc1n[nH]c(=S)n1-c1ccccc1 | 1.01 |
| NC(=NS(=O)(=O)c1cc(Cl)c(Oc2ccc([N+](=O)[O-])cc2Cl)c(Cl)c1)c1cccnc1 | 1.01 |
| N#CCS(=O)(=O)c1cccs1 | 0.989 |
| NC(=S)CS(=O)(=O)c1ccc(C(F)(F)F)cc1 | 0.992 |

====

Experiment: chemical genetic growth profiling, strain panel (AID 1159580);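 also: tested at 20 µM; growth read once vehicle control cultures reached saturation at 30 °C; 1 = growth at the plate median or of vehicle wells; lower values mean less growth of the strain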
Conditions: S. cerevisiae deletion strains, growth OD, locus YHR082C, strain KSP1
About 2,000 (36%) of roughly 5,500 compounds were called active. Not shown: some 18% with an inconclusive outcome. No stated cut-off is given here; in the data, active means normalized growth mostly below about 0.91 (no sharp cut-off); inconclusive means no clear call, values can overlap the other calls; inactive means mostly above about 0.92. Some of the results follow.
Possible outcomes: true for active, false for inactive

| compound | assigned label |
| --- | --- |
| Cc1cc(-c2onc(C)c2C(=O)Sc2ccccc2)no1 | false |
| FC(F)(F)Sc1ccc(OCc2n[nH]c(=S)n2-c2ccccc2)cc1 | false |
| O=c1cc(CSc2ccc(Cl)cc2)c2ccc(O)cc2o1 | true |
| CCn1nc(C)cc1C(=O)Sc1cccc(Br)c1 | false |
| N/C(=N/OC(=O)c1ccc([N+](=O)[O-])cc1)c1c(Cl)cccc1Cl | false |
| Cc1ccc(OS(=O)(=O)c2c(Cl)sc(Cl)c2Br)c([N+](=O)[O-])n1 | false |
| O=C(Nc1ccc(SC(F)(F)F)cc1)Nc1ccc(Oc2cccc(C(F)(F)F)c2)nc1 | false |
| CN1/C(=C/C=C/c2ccc3ccccc3[n+]2C)C=Cc2ccccc21 | true |
| Cc1cc(Br)c(O)c(/C=N\NC(=S)NC(C)(C)C)c1 | false |

====

Assay: chemical genetic growth profiling, strain panel (AID 1159580);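 also: tested at 20 µM; growth read once vehicle control cultures reached saturation at 30 °C; 1 = growth at the plate median or of vehicle wells; lower values mean less growth of the strain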
Conditions: S. cerevisiae deletion strains, growth OD, locus YDL134C, strain PPH21, hits give low values
About 2,000 (36%) of roughly 5,500 compounds were called active. Roughly 18% stayed inconclusive and do not appear here. This is one part of the list.
experimental endpoint: normalized growth

| compound | experimental endpoint | assay result |
| --- | --- | --- |
| CN(C)C(=O)C(CCN1CCC(O)(c2ccc(Cl)cc2)CC1)(c1ccccc1)c1ccccc1 | normalized growth | 1.01 |
| C[C@@H](CO)NC(=O)C1C=C2c3cccc4[nH]cc(c34)C[C@H]2N(C)C1 (some centres not stated) | normalized growth | 0.995 |
| NC(=O)c1ccccc1O | normalized growth | 1 |
| COc1ccccc1N1CCN(CCCNc2cc(=O)n(C)c(=O)n2C)CC1 | normalized growth | 0.984 |
| Cc1ccccc1N1C(=O)c2cc(S(N)(=O)=O)c(Cl)cc2NC1C (configuration not stated) | normalized growth | 0.983 |
| COc1cccc2c1CCC1=CC(=O)CC[C@@]12C | normalized growth | 0.995 |
| COc1ccc(OC)c(CNC(=O)Cc2cccs2)c1 | normalized growth | 0.997 |
| O=C(CCCN1CCC2(CC1)C(=O)NCN2c1ccccc1)c1ccc(F)cc1 | normalized growth | 1.01 |
| COP(N)(=O)SC (configuration not stated) | normalized growth | 1.01 |
| Cc1c(OCC(F)(F)F)ccnc1CS(=O)c1nc2ccccc2[nH]1 (configuration not stated) | normalized growth | 0.997 |
| CNC[C@H](O)c1cccc(O)c1 | normalized growth | 1.01 |
| CCOC(=O)C1=C(O)C(=O)N(Cc2ccccc2)C1 | normalized growth | 1 |
| Oc1ccc2c3c1OC1[C@@H](O)CC[C@@]4(O)[C@@H](C2)N(CC2CCC2)CC[C@]314 (some centres not stated) | normalized growth | 1.02 |
| CC1(C)[C@@H]2CC[C@@]1(C)C(=O)C2 | normalized growth | 0.994 |
| COc1cc([N+](=O)[O-])c(OC)cc1SCC(=O)NNC(=O)c1cc(OC)c(OC)c(OC)c1 | normalized growth | 0.991 |
| O=C(O)c1ccccc1O | normalized growth | 1.01 |
| COc1cc(C)c2c(=O)c3c(O)cc(OC)cc3oc2c1 | normalized growth | 1.01 |
| Cc1ccc(NC(=O)CC#N)c(C)c1 | normalized growth | 1.01 |
| CC(C)(C)NCC(O)COc1cccc2c1C[C@H](O)[C@H](O)C2 (some centres not stated) | normalized growth | 1 |
| CSCCC(N)C(=O)NC(CC(C)C)C(=O)NC(Cc1ccccc1)C(=O)O (configuration not stated) | normalized growth | 1.02 |
| COC(=O)NC(=S)Nc1ccccc1NC(=S)NC(=O)OC | normalized growth | 1 |
| C[C@]12CCC(=O)C=C1CCc1ccc(O)cc12 | normalized growth | 1 |
| CCn1nc(C(=O)O)c(=O)c2cc3c(cc21)OCO3 | normalized growth | 1 |
| NC(N)=NC(N)=Nc1cc(Cl)cc(Cl)c1 | normalized growth | 1.01 |
| NC(N)=Nc1ccc(Cl)cc1 | normalized growth | 1.02 |
| O=C(Nc1ccc(OC(F)(F)F)cc1)Nc1cccc(C(=O)O)c1 | normalized growth | 1.04 |
| C/C=C/CC(C)C(O)C1C(=O)NC(CC)C(=O)N(C)CC(=O)N(C)C(CC(C)C)C(=O)NC(C(C)C)C(=O)N(C)C(CC(C)C)C(=O)NC(C)C(=O)NC(C)C(=O)N(C)C(CC(C)C)C(=O)N(C)C(CC(C)C)C(=O)N(C)C(C(C)C)C(=O)N1C (configuration not stated) | normalized growth | 0.983 |
| CC(=O)N1CCN(c2ccc(OCC3CO[C@](Cn4ccnc4)(c4ccc(Cl)cc4Cl)O3)cc2)CC1 (some centres not stated) | normalized growth | 0.0637 |
| NCC(O)CC(=O)O (configuration not stated) | normalized growth | 1.01 |
| Cc1ccc(C(C)C)c(O)c1C(=O)O | normalized growth | 0.998 |
| O=C(Nc1ccc(Cl)cc1)N1CCN(c2ncccc2C(F)(F)F)CC1 | normalized growth | 0.955 |
| CNC(=S)N/N=C\c1cc(Br)cc(Br)c1O | normalized growth | 0.537 |
| CCC(=O)OCC(=O)[C@@]1(OC(=O)CC)[C@@H](C)CC2C3CCC4=CC(=O)C=C[C@]4(C)C3(F)[C@@H](O)C[C@@]21C (some centres not stated) | normalized growth | 0.844 |
| O=C1c2ccccc2C(=O)N1CN1CCC(O)(c2ccc(Cl)cc2)CC1 | normalized growth | 1.01 |
| C[N+]1(C)C[C@H](O)[C@H](C(=O)[O-])C1 | normalized growth | 1.01 |
| COc1cc(C(=O)N2CCOCC2)cc(OC)c1OC | normalized growth | 1.01 |
| COc1cc(NC(=S)N2CCN(c3ccccc3OC)CC2)c(OC)cc1Cl | normalized growth | 1.01 |
